Data provenance is ChEMBL document CHEMBL1130620.

Test system: MCF7R
assay.text: Cytotoxicity was evaluated at 1 uM concentration in MCF7-R cell line when co-administered with Paclitaxel
Assay type: functional, cell-based
assay.conditions: Homo sapiens
property.name: pIC50
Field pIC50 (float): negative decimal logarithm of the concentration in molar.

Answered examples (2):
molecule: CC(=O)O[C@@]12CO[C@@H]1C[C@H](O)[C@@]1(C)C(=O)[C@H](O)C3=C(C)[C@@H](OC(=O)/C=C/c4ccc5ccccc5c4)C[C@@](O)([C@@H](OC(=O)c4ccccc4)[C@H]21)C3(C)C
subject.of.test: MCF7R
pIC50: 7.00
//
molecule: CC(=O)O[C@@]12CO[C@@H]1C[C@H](OC(=O)/C=C/c1ccc3ccccc3c1)[C@@]1(C)C(=O)[C@H](OC(=O)CCc3ccc(C(=O)c4ccccc4)cc3)C3=C(C)[C@@H](O)C[C@@](O)([C@@H](OC(=O)c4ccccc4)[C@H]21)C3(C)C
subject.of.test: MCF7R
pIC50: 6.07

query: # query: pIC50 of entry CC(=O)O[C@H]1C(=O)[C@]2(C)[C@@H](OC(=O)CNC(=O)c3ccc4ccccc4c3)C[C@H]3OC[C@@]3(OC(C)=O)[C@H]2[C@H](OC(=O)c2ccccc2)[C@]2(O)C[C@H](O)C(C)=C1C2(C)C
result: 6.30

query: # query: pIC50 of entry CC(=O)O[C@H]1C(=O)[C@]2(C)[C@@H](OC(=O)CCC3CCC4CCCCC4C3)C[C@H]3OC[C@@]3(OC(C)=O)[C@H]2[C@H](OC(=O)C2CCCCC2)[C@]2(O)C[C@H](O)C(C)=C1C2(C)C (some centres undefined)
result: 6.80

query: # query: pIC50 of entry CC(=O)O[C@@]12CO[C@@H]1C[C@H](OC(=O)/C=C/c1ccc3ccccc3c1)[C@@]1(C)C(=O)[C@H](OC(=O)/C=C/c3ccc4ccccc4c3)C3=C(C)[C@@H](O)C[C@@](O)([C@@H](OC(=O)c4ccccc4)[C@H]21)C3(C)C
result: 6.33

query: # query: pIC50 of entry CC(=O)O[C@H]1C(=O)[C@]2(C)[C@@H](OC(=O)c3ccc4ccccc4c3)C[C@H]3OC[C@@]3(OC(C)=O)[C@H]2[C@H](OC(=O)c2ccccc2)[C@]2(O)C[C@H](O)C(C)=C1C2(C)C
result: 7.68

query: # query: pIC50 of entry CC(=O)O[C@@]12CO[C@@H]1C[C@H](OC(=O)CCc1ccc(C(=O)c3ccccc3)cc1)[C@@]1(C)C(=O)[C@H](OC(=O)CCc3ccc(C(=O)c4ccccc4)cc3)C3=C(C)[C@@H](O)C[C@@](O)([C@@H](OC(=O)c4ccccc4)[C@H]21)C3(C)C
result: 8.59

query: # query: pIC50 of entry CC(=O)O[C@H]1C(=O)[C@]2(C)[C@@H](OC(=O)CCc3ccc4ccccc4c3)C[C@H]3OC[C@@]3(OC(C)=O)[C@H]2[C@H](OC(=O)c2ccccc2)[C@]2(O)C[C@H](O)C(C)=C1C2(C)C
result: 7.48

query: # query: pIC50 of entry CC(=O)O[C@@]12CO[C@@H]1C[C@H](O)[C@@]1(C)C(=O)[C@H](O)C3=C(C)[C@@H](OC(=O)/C=C/c4ccc(C(=O)c5ccccc5)cc4)C[C@@](O)([C@@H](OC(=O)c4ccccc4)[C@H]21)C3(C)C
result: 6.07

====

Tested on: MCF7R
assay.text: Compound was evaluated for multi-drug resistance (MDR) reversal at 3 uM concentration in MCF7-R cell line when co-administered with Paclitaxel
Assay type: functional, Homo sapiens
property.name: Reduction (%)
Field: numeric (%). Do not append units.

Answered examples (3):
compound.structure.string: CC(=O)O[C@@]12CO[C@@H]1C[C@H](OC(=O)OCC(Cl)(Cl)Cl)[C@@]1(C)C(=O)[C@H](OC(=O)OCC(Cl)(Cl)Cl)C3=C(C)[C@@H](OC(=O)CCc4ccc5ccccc5c4)C[C@@](O)([C@@H](OC(=O)c4ccccc4)[C@H]21)C3(C)C
property.name: Reduction
observed.value: 0
//
compound.structure.string: CC(=O)O[C@@]12CO[C@@H]1C[C@H](OC(=O)OCC(Cl)(Cl)Cl)[C@@]1(C)C(=O)[C@H](OC(=O)OCC(Cl)(Cl)Cl)C3=C(C)[C@@H](OC(=O)/C=C/c4ccc5ccccc5c4)C[C@@](O)([C@@H](OC(=O)c4ccccc4)[C@H]21)C3(C)C
property.name: Reduction
observed.value: 12
//
compound.structure.string: CC(=O)O[C@H]1C(=O)[C@]2(C)[C@@H](OC(=O)/C=C/c3ccc4ccccc4c3)C[C@H]3OC[C@@]3(OC(C)=O)[C@H]2[C@H](OC(=O)c2ccccc2)[C@]2(O)C[C@H](OC(C)=O)C(C)=C1C2(C)C
property.name: Reduction
observed.value: 99.3

Moving on to another compound below.
query: # query: Reduction of entry CC(=O)O[C@@]12CO[C@@H]1C[C@H](OC(=O)OCC(Cl)(Cl)Cl)[C@@]1(C)C(=O)[C@H](OC(=O)OCC(Cl)(Cl)Cl)C3=C(C)[C@@H](OC(=O)/C=C/c4ccc(C(=O)c5ccccc5)cc4)C[C@@](O)([C@@H](OC(=O)c4ccccc4)[C@H]21)C3(C)C
result: 80
